# Test system: UACC-257 melanoma
# methodNotes: NCI tumour cell line growth inhibition, 48 h
# Lookup of reported GI50 keyed by entry
assayEndpoint: GI50

[[record]]
recordsmiles = "CN(C)c1cc2c(Nc3ccc4c(cnn4Cc4ccccc4)c3)ncnc2cn1"
assayendpoint = "GI50"
obsvalue = "13200 nM"

[[record]]
recordsmiles = "COc1cccc(N2CCN(c3ncnc4cc[nH]c34)CC2)c1"
assayendpoint = "GI50"
obsvalue = "2320 nM"

[[record]]
recordsmiles = "C=C1C(=O)O[C@H]2[C@H]1CC/C(COC(=O)CCCCCCCC(=O)OC/C1=C/CC[C@@]3(C)O[C@H]3[C@H]3OC(=O)C(=C)[C@@H]3CC1)=C\\CC[C@@]1(C)O[C@@H]21"
assayendpoint = "GI50"
obsvalue = "2130 nM"

